assay: Solubility in water at 15 degC; type: physicochemical; details: in the assay text read “25 degC” for “15 degC”
Readout: solubility (µg/mL)
Respond numerically; units are µg/mL and should not be typed.

(Q) Dear colleague, I am looking for the recorded solubility of the following molecule: CC(=O)O[C@H]1C(=O)[C@@]2(C)[C@H]([C@H](OC(=O)c3ccccc3)[C@]3(O)C[C@H](OC(=O)[C@H](OC(=O)c4ccccc4)[C@@H](N)c4ccccc4)C(C)=C1C3(C)C)[C@]1(OC(C)=O)CO[C@@H]1C[C@@H]2O
(A) 450

Source: ChEMBL document CHEMBL1150310
